# system-name: FAM111A
# procedure-summary: pooled miR-30 sensor sort-seq; sequence = guide strand
# test-parameters: shRNA
Cut-off -0.6 on sensor-assay potency score (higher = more potent), inclusive. At or above means Criterion met; below means Criterion not met.

Q: Answer whether sensor-assay potency score (higher = more potent) of "TTACATTTTTCATTGACTGAGT" is greater than or equal to -0.6.
Ans: Criterion met

Q: Answer whether sensor-assay potency score (higher = more potent) of "TTGAGAGCCATATATAAGCTAC" is greater than or equal to -0.6.
Ans: Criterion not met

* * *

# sensor-assay potency score (higher = more potent) per entry
# system-name: TDRKH
# procedure-summary: pooled miR-30 sensor sort-seq; sequence = guide strand
# test-parameters: shRNA
No unit in the answer, only the number.

I looked up "TATAAGTAGATCTTTGGCCAAG" and its sensor-assay potency score (higher = more potent) for TDRKH was -1.04

I looked up "TTGTGTACTAATTCTAGCCCAA" and its sensor-assay potency score (higher = more potent) for TDRKH was 0.0219

I looked up "TCTGTGTCCACATCAATCCGAG" and its sensor-assay potency score (higher = more potent) for TDRKH was -0.281

* * *

# system-name: KPRP
# procedure-summary: pooled miR-30 sensor sort-seq; sequence = guide strand
# test-parameters: shRNA
measure: sensor-assay potency score (higher = more potent)
No unit in the answer, only the number.

| sequence | numeric-result |
| --- | --- |
| AATCTCAACAGGACACCTCTGT | 0.644 |
| TTGTCGTGGTAGAGGACGCGGG | -1.43 |

Noted for "TAGACTGACATTGAGCCTGGCC" : its sensor-assay potency score (higher = more potent) reads 0.158

Noted for "TAGTTGTTGCAGGTAGCCCTTG" : its sensor-assay potency score (higher = more potent) reads -0.668

Noted for "TAGACTGGCACTTCACCTGTGT" : its sensor-assay potency score (higher = more potent) reads 0.425

Noted for "TCTTAGACTGACATTGAGCCTG" : its sensor-assay potency score (higher = more potent) reads -0.234

Noted for "TGGTCTTAGACTGACATTGAGC" : its sensor-assay potency score (higher = more potent) reads -1.69

* * *

# system-name: AGAP3
# procedure-summary: pooled miR-30 sensor sort-seq; sequence = guide strand
# test-parameters: shRNA
# sensor-assay potency score (higher = more potent) per entry
No unit in the answer, only the number.

Example sequences with recorded sensor-assay potency score (higher = more potent):
| sequence | system-name | numeric-result |
| --- | --- | --- |
| TTGTACACCGTCTGGAAACTGA | AGAP3 | -0.718 |
| TTCCCTGGCACTTTCACCGTTG | AGAP3 | -0.316 |
| TGGAACTGAGTACCTCAGCTGG | AGAP3 | -1.58 |

Noted for "ATTGGGTGCATCGCAGTCGATA" : its sensor-assay potency score (higher = more potent) reads -1.38

Noted for "TACTTCTTCTTCCACTCCTTGT" : its sensor-assay potency score (higher = more potent) reads -0.51

Noted for "TCTGCTGTCGTCGATAACCCGG" : its sensor-assay potency score (higher = more potent) reads -1.3

Noted for "TTAAGCTCCGGTACGGAGCGGC" : its sensor-assay potency score (higher = more potent) reads -0.14

* * *

# system-name: TM7SF2
# procedure-summary: pooled miR-30 sensor sort-seq; sequence = guide strand
# test-parameters: shRNA
Cut-off -0.7 on sensor-assay potency score (higher = more potent), inclusive. At or above means MET; below means NOT MET.

Use these answered entries as a reference point.
| sequence | system-name | qualitative-label |
| --- | --- | --- |
| TTGTCCTTCAATTCCTGCCCCT | TM7SF2 | MET |
| TTTGAAGTCGAAGAAACAGATA | TM7SF2 | NOT MET |
| TTCATGTAGAGAAAGAGGCTGA | TM7SF2 | MET |
| TTTCGGAAAGTGTTTTTCTGGG | TM7SF2 | NOT MET |
| TATTTGAAGTCGAAGAAACAGA | TM7SF2 | NOT MET |

Q: Answer whether sensor-assay potency score (higher = more potent) of "TTGATGAGGCAGATGACAGAGG" is greater than or equal to -0.7.
Ans: MET

Q: Answer whether sensor-assay potency score (higher = more potent) of "TACTTCTGCAGGCACTGCCGCT" is greater than or equal to -0.7.
Ans: NOT MET

Q: Answer whether sensor-assay potency score (higher = more potent) of "TCATGTGTGATATCCATGGTGG" is greater than or equal to -0.7.
Ans: MET
